Parameter Affinity increase: see the listing below.
Molecular target: T1, AFP158/HLA-A*02:01 complex (human)
T1 construct: flowed as analyte in SPR
Assay: SPR, fold vs AS170036 VL1VH1;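 note: crude scFv muteins immobilised on a sensor chip, peptide–MHC complex passed over at several concentrations, binding then buffer-driven dissociation, KD estimated from on- and off-rates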
Report the value in fold with no unit label.

Worked cases, Affinity increase given:
>>> experimental_value("AS170036 VL1VH1-56Y98F108D (scFv, also called 41-AS170036 VL1VH1-56Y98F108D) scFv: QSALTQPRSVSGSPGQSVTISCAGTSSDVGSENYVSWYQQHPGKAPKLMIYQVNKRASGVPDRFSGSKSGNTASLTISGLQAEDEADYYCASYRSSDFNIVFGGGTKLTVLGGGGSGGGGSGGGGSEVQLVESGGGLVQPGGSLRLSCAASGFTFSSYAMSWVRQAPGKGLEWVSTINSGTYSPYYADSVKGRFTISRDNSKNTLYLQMNSLRAEDTAVYYCAKNFFDGSWFLDPPAMDYWGQGTLVTVSSHHHHHH")
110
>>> experimental_value("AS170036 VL1VH1-56Y98F108S (scFv, also called 42-AS170036 VL1VH1-56Y98F108S) scFv: QSALTQPRSVSGSPGQSVTISCAGTSSDVGSENYVSWYQQHPGKAPKLMIYQVNKRASGVPDRFSGSKSGNTASLTISGLQAEDEADYYCASYRSSDFNIVFGGGTKLTVLGGGGSGGGGSGGGGSEVQLVESGGGLVQPGGSLRLSCAASGFTFSSYAMSWVRQAPGKGLEWVSTINSGTYSPYYADSVKGRFTISRDNSKNTLYLQMNSLRAEDTAVYYCAKNFFDGSWFLSPPAMDYWGQGTLVTVSSHHHHHH")
56.3

Data request: Recorded Affinity increase for AS170036 VL1VH1-57K98F108A (scFv, also called 67-AS170036 VL1VH1-57K98F108A) scFv: QSALTQPRSVSGSPGQSVTISCAGTSSDVGSENYVSWYQQHPGKAPKLMIYQVNKRASGVPDRFSGSKSGNTASLTISGLQAEDEADYYCASYRSSDFNIVFGGGTKLTVLGGGGSGGGGSGGGGSEVQLVESGGGLVQPGGSLRLSCAASGFTFSSYAMSWVRQAPGKGLEWVSTINSGTGKPYYADSVKGRFTISRDNSKNTLYLQMNSLRAEDTAVYYCAKNFFDGSWFLAPPAMDYWGQGTLVTVSSHHHHHH , please?
Data returned: 64.3
